# Tested on: alveolar type II epithelial cells (T2 cells)
# protocol: Binding strength (affinity) of immobilized LN peptides to T2 cells relative to immobilized FIB-1 (mixed immobilization, free FIB-1 competition)
# Format: cell-based
# protocol conditions: peptide:FIB-1 co-immobilized, FIB-1 0.25 mg/ml; loss of inhibition by free FIB-1
Where no end group is shown, it is not given here.
measurement label: Mixing ratio at the transitional midpoint

Reference set, count: 4
KNSFMALYLSKG = about 1
TLFLAHGRLVFM = 0.1
RKRLQVQLSIRT = 0.01
LVLFLNHGHFVA = about 1

Hi, could you look up Mixing ratio at the transitional midpoint for each item in my list?
1. GNSTISIRAPVY
2. KPRLQFSLDIQT
3. GPLPSYLQFVGI

["about 1", 0.1, "about 1"]
